Biological target: UniProtKB P04062
Sequence (P04062 whole entry): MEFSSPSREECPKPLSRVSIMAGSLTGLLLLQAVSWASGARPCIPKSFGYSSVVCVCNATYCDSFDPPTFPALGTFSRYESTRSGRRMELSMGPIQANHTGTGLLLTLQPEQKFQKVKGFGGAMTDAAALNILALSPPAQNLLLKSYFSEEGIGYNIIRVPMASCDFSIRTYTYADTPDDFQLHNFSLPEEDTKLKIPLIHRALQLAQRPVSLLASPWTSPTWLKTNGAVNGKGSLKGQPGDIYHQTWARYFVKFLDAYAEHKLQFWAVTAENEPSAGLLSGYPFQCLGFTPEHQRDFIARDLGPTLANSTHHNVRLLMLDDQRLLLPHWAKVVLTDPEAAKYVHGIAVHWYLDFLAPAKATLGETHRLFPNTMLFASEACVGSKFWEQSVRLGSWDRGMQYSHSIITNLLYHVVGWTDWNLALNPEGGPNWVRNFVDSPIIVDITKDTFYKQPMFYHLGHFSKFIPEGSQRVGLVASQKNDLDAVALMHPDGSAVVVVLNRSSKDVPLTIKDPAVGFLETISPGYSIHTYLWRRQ
Assay: Inhibition of human recombinant beta-glucocerebrosidase assessed as p-nitrophenolate accumulation preincubated for 10 mins before p-nitrophenyl-beta-d-glucopyranoside addition measured after 10 mins by […]
readoutLabel: IC50 (µM)

Please look up its IC50: CCCCCC[C@H]1N[C@@H](CO)[C@@H](O)[C@H](O)[C@H]1O
43

Which IC50 is reported for this compound? CCCCC1N[C@@H](CO)[C@@H](O)[C@H](O)[C@H]1O (single isomer, unassigned)
147

1. CCC[C@H]1NC[C@@H](O)[C@H](O)[C@H]1O
2. CCCC1N[C@@H](CO)[C@@H](O)[C@H](O)[C@H]1O (single isomer, unassigned)
3. CCCCCC[C@H]1NC[C@@H](O)[C@H](O)[C@H]1O
Would you mind ranking these compounds by ascending IC50? Output spec: a listing of the labels in the requested order.
3, 1, 2
(3: 0.019 µM, 1: 0.56 µM, 2: 487 µM)

###

molecular target: Lysosomal acid glucosylceramidase (Homo sapiens, UniProt P04062); test: Inhibition of human recombinant beta-glucocerebrosidase assessed as p-nitrophenolate accumulation preincubated for 10 mins before p-nitrophenyl-beta-d-glucopyranoside addition measured after 10 mins by […]
readoutLabel: Ki (nM)
Record the value in nM, omitting the unit from your answer.

# returns recorded Ki (system: Lysosomal acid glucosylceramidase (Homo sapiens, UniProt P04062)) for CCCCCCCCC[C@H]1NC[C@@H](O)[C@H](O)[C@H]1O
2.2
